target: human androgen receptor (Homo sapiens (Human)); test: Antagonist activity for AR (pMMTV-luc reporter transcription activity in transfected COS-7 cells, DHT 1 nmol/L); conditions: 50% transcription activity inhibition concentration; COS-7 cells with pMMTV-luc and pEX-hAR, DHT 1 nmol/L, 24 hours
Sequence (P10275 whole entry): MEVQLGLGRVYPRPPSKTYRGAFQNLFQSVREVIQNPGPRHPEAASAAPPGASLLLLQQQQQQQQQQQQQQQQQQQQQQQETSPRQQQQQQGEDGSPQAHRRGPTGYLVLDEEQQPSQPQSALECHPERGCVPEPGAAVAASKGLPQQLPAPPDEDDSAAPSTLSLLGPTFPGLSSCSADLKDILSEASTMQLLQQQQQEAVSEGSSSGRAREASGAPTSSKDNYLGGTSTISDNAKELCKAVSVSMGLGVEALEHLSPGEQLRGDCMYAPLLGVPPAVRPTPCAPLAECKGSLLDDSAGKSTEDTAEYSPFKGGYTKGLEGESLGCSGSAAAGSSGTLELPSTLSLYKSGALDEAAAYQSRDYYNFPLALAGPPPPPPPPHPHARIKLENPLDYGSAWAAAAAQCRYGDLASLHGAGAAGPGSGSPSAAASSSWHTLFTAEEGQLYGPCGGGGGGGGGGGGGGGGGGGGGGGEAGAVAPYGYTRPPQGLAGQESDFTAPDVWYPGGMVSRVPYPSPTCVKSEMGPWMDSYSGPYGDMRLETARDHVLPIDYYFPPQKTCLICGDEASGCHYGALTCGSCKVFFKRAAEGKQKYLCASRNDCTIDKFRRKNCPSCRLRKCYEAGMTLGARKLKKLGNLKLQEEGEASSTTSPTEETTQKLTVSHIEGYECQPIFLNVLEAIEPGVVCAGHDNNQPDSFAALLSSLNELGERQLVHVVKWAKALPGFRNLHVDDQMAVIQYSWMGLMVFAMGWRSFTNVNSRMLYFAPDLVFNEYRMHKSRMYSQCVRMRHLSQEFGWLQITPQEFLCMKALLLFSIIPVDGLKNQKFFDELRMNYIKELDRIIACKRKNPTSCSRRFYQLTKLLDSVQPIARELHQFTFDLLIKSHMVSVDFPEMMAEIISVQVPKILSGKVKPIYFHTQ
Property: IC50; scope: individual molecules
# number only, unit nM dropped from output

Examples with answers:
{"structure_as_smiles": "CC(C)(O)c1ccc(Nc2ncnc3c2CCN(c2ccc(C#N)c(Cl)c2)C3)nc1", "unit_label": "nM", "IC50": 250}
{"structure_as_smiles": "CS(=O)(=O)N1CCN(CCCOc2ccc(Nc3ncnc4c3CCN(c3ccc(C#N)c(C(F)(F)F)c3)C4)cc2)CC1", "unit_label": "nM", "IC50": 360}
{"structure_as_smiles": "CC(C)(COc1ncc(Nc2ncnc3c2CCN(c2ccc(C#N)c(C(F)(F)F)c2)C3)cc1F)n1cnnn1", "unit_label": "nM", "IC50": 320}

Which IC50 is listed for `N#Cc1ccc(N2CCc3c(ncnc3Nc3nc(C(F)(F)F)c(C(=O)NCC(F)(F)F)s3)C2)cc1C(F)(F)F` ?
60

Endpoint output: IC50 of `N#Cc1ccc(N2CCc3c(ncnc3Nc3ccc(C(=O)NCC(F)F)nn3)C2)cc1C(F)(F)F` . Value?
20

Which IC50 reading was recorded for the molecule `N#Cc1ccc(N2CCc3c(ncnc3Nc3ccc(C4(O)CC4)cn3)C2)cc1C(F)(F)F` ?
170

Suppose we examine the molecule `CC(C)(O)c1ccc(Nc2ncnc3c2CCN(c2ccc(C#N)c(C(F)(F)F)c2)C3)nc1` ; what IC50 value has been reported?
160

May I ask what IC50 has been recorded for `CC(C)(COc1ccc(Nc2ncnc3c2CCN(c2ccc(C#N)c(Cl)c2)C3)nc1)n1cnnn1` ?
55

# lookup: IC50 of `CC(C)(O)CNC(=O)c1ccc(Nc2ncnc3c2CCN(c2ccc(C#N)c(C(F)(F)F)c2)C3)nn1`
60

Query: IC50; subject: `CC(C)(O)C1CCN(C(=O)c2cnc(Nc3ncnc4c3CCN(c3ccc(C#N)c(C(F)(F)F)c3)C4)o2)CC1`
340

For the molecule shown here, `C[C@@H](NC(=O)c1ccc(Nc2ncnc3c2CCN(c2ccc(C#N)c(C(F)(F)F)c2)C3)nc1)c1nnco1` , give the reported IC50.
560

====

target: human androgen receptor (Homo sapiens (Human)); assay: Antagonist activity for AR (pMMTV-luc reporter transcription activity in transfected COS-7 cells, DHT 1 nmol/L); conditions: 50% transcription activity inhibition concentration; COS-7 cells with pMMTV-luc and pEX-hAR, DHT 1 nmol/L, 24 hours
pIC50: −log10 of the molar value.
Tag: y if measured pIC50 is not below 6, n if it is.

{"molecule": "CC(C)Oc1ccc(Nc2ncnc3c2CCN(c2ccc(C#N)c(C(F)(F)F)c2)C3)cc1 [Example 2]", "measured_target": "human androgen receptor (Homo sapiens (Human))", "assigned_category": "y"}
{"molecule": "N#Cc1ccc(N2CCc3c(ncnc3Nc3ccc(CC(=O)NCC(F)(F)F)cn3)C2)cc1C(F)(F)F [Example 22]", "measured_target": "human androgen receptor (Homo sapiens (Human))", "assigned_category": "y"}
{"molecule": "CC(C)(O)c1ccc(Nc2ncnc3c2CCN(c2ccc(C#N)cc2)C3)nc1 [Comparative Example 11, reference compound]", "measured_target": "human androgen receptor (Homo sapiens (Human))", "assigned_category": "n"}
{"molecule": "N#Cc1ccc(N2CCc3c(ncnc3Nc3cc(C(=O)NCC(F)(F)F)ccn3)C2)cc1C(F)(F)F [Example 31]", "measured_target": "human androgen receptor (Homo sapiens (Human))", "assigned_category": "y"}
{"molecule": "N#Cc1ccc(N2CCc3c(ncnc3Nc3cccc(-c4ccccc4)c3)C2)cc1C(F)(F)F [Example 4]", "measured_target": "human androgen receptor (Homo sapiens (Human))", "assigned_category": "y"}

Test whether the molecule CC(C)(O)c1ccc(Nc2ncnc3c2CCN(c2cccc(Cl)c2C#N)C3)nc1 [Comparative Example 7, reference compound] records pIC50 of 6 or higher.
n

Is the recorded value of pIC50 equal to or greater than 6 for this molecule? N#Cc1ccc(N2CCc3c(ncnc3Nc3ccc(NC(=O)OCC(F)(F)F)cn3)C2)cc1C(F)(F)F [Example 21]
y

Would you say C[C@@H](NC(=O)c1nnc(Nc2ncnc3c2CCN(c2ccc(C#N)c(C(F)(F)F)c2)C3)s1)c1nnco1 [Example 39] shows pIC50 at minimum 6?
n

Decide: pIC50 of Cn1nccc1CCNC(=O)c1nnc(Nc2ncnc3c2CCN(c2ccc(C#N)c(C(F)(F)F)c2)C3)s1 [Example 35] >= 6?
y

Say whether N#Cc1ccc(N2CCc3c(ncnc3Nc3ncc(C(=O)NCC(F)(F)F)nn3)C2)cc1C(F)(F)F [Example 25] shows pIC50 of 6 or more.
n

Kindly determine if pIC50 recorded for CC(C)(COc1ncc(Nc2ncnc3c2CCN(c2ccc(C#N)c(C(F)(F)F)c2)C3)cc1Cl)n1cnnn1 [Example 52] is above or exactly 6.
y

Assess whether reported pIC50 for N#Cc1ccc(N2CCc3c(ncnc3Nc3ccc(C(=O)NCC(F)F)nc3)C2)cc1C(F)(F)F [Example 48] sits at 6 or higher.
y

Ref: patent US10300067B2
